- System: NCI-H23 lung
- MEASUREMENT NOTES: NCI tumour cell line growth inhibition, 48 h
MEASURED METRIC: TGI

MOLECULE	TGI
COC(=O)c1cnc(=O)n(C2CC(O)C(CO)O2)c1 (centres undefined)	> 100 µM
COc1cc2c(cc1OC)C1Cc3ccccc3CCN1CC2 (centres undefined)	> 100 µM
CC(CC(=O)CO[C@H]1[C@H](O)[C@@H](O)[C@@H](O)[C@@H]2NC(=O)c3c(cc4c(c3O)OCO4)[C@H]21)OC1OC(CO)C(O)C(O)C1O (some centres undefined)	3.07 µM
COc1cc(C2C(Cl)C(=O)N2n2cnc3ccccc3c2=O)cc(OC)c1OC (centres undefined)	> 100 µM

For the record Cc1cc(NC(=O)C2c3ccccc3C(=O)N(CC(C)C)C2c2cccs2)no1 (centres undefined) , what value of TGI is listed for NCI-H23 lung?
> 100 µM

For the record O=C(Nc1n[nH]c2nc(-c3ccco3)c(Br)cc12)C1CC1 , what value of TGI is listed for NCI-H23 lung?
> 25 µM

For the record Cc1cc(C)c(S(=O)(=O)N[C@@H](/C=C(\Br)CO)C(C)C)c(C)c1 , what value of TGI is listed for NCI-H23 lung?
> 100 µM

For the record CCOC(=O)C1C=C2O[C@@H]3OC4(CCCCC4)O[C@@H]3C2[C@H]2C(=O)C=CC(=O)[C@@]12C(=O)OC (some centres undefined) , what value of TGI is listed for NCI-H23 lung?
45.2 µM

For the record COc1cc[nH]c1/C=C1\C(=O)Nc2ccc(F)c(C#C[C@@H](O)[C@@H](N)[C@@H](C)O)c21 , what value of TGI is listed for NCI-H23 lung?
3.33 µM

* * *

- System: SR leukemia
- MEASUREMENT NOTES: NCI tumour cell line growth inhibition, 48 h; in the data active = GI50 below about 0.43 µM; inactive = the rest
Can you answer with just one of these options? active, inactive

MOLECULE	LABEL VALUE
CCCCCCCCCCCCCCCCCCNC(=O)[C@H]1CSC(c2ccc(OC)c(F)c2)N1 (stereo not given in full)	inactive
COc1ccc(N(C)c2nc(C)nc3ccccc23)cc1	active
COc1cc(C2CC(c3cccc(Nc4ccncc4)c3)=NN2c2cc(Cl)cc(Cl)c2)cc(OC)c1OC (stereo not given)	inactive
O=C(c1cccs1)c1c(C(F)(F)F)n([O-])c2ccc(C(F)(F)F)cc2[n+]1=O	active
COc1ccc(/C=C2\CN(C(=O)CCN3CCC(=NO)CC3)C/C(=C\c3ccc(OC)cc3)C2=O)cc1	inactive

Please share the test call associated with O=C(CCCc1c[nH]c2ccccc12)NC1CC(=O)c2c(Br)sc(Br)c21 (stereo not given) .
inactive

Please share the test call associated with COc1cccc(NC(=O)c2sc3nc4c(cc3c2N)CCCC4)c1 .
active

Please share the test call associated with COc1cc[nH]c1/C=C1\C(=O)Nc2ccc(F)c(C#C[C@@H](O)[C@@H](N)[C@@H](C)O)c21 .
active

Please share the test call associated with CC1(C)CC(=O)C2=C(C1)NC(SSC1=C(C#N)C(c3ccccc3)C3=C(CC(C)(C)CC3=O)N1)=C(C#N)C2c1ccccc1 (stereo not given) .
inactive

Please share the test call associated with C[C@@H](c1ccc2nccn2c1)n1nnc2ncc(-c3cnn(C)c3)nc21 .
inactive

* * *

- System: NCI-H23 lung
- MEASUREMENT NOTES: NCI tumour cell line growth inhibition, 48 h
MEASURED METRIC: TGI (µM)
Quick reminder: number only, in µM, skip the unit.

Recorded results for 4 molecules are shown here.
SUBSTANCE SMILES	ASSAY TARGET	DISPLAY UNIT	TGI
O=C1C=C[C@]2(C[C@@H](c3cccc(C(F)(F)F)c3)O[C@@H](c3cccc(C(F)(F)F)c3)O2)O1	NCI-H23 lung	µM	18.7
O=C(c1ccc(Cl)cc1Cl)N(Cc1cccnc1)C(=S)N(Cc1cccnc1)C(=O)c1ccc(Cl)cc1Cl	NCI-H23 lung	µM	44.6
O/N=c1/ccn(O)c2ccccc12	NCI-H23 lung	µM	8.96
CCN(CC)CCN1CCNc2c3cc(OC)ccc3nc3c([N+](=O)[O-])ccc1c23	NCI-H23 lung	µM	2.44

# lookup: TGI of OB([O][Hg][c]1ccccc1)[O][Hg][c]1ccccc1
2.17

* * *

- Test system: ACHN renal
- MEASUREMENT NOTES: NCI tumour cell line growth inhibition, 48 h
MEASURED METRIC: TGI (µM)
Quick reminder: number only, in µM, skip the unit.

COMPOUND	TGI, µM
C/C(=N\NC(=S)Nc1ccc(C(=O)O)cc1)c1ccccn1	30.4

Consider the additional compound presented here.
# lookup: TGI of O=C1C2CC(Cl)C(SSC3CC4C(=O)N(SC(Cl)(Cl)C(Cl)Cl)C(=O)C4CC3Cl)CC2C(=O)N1SC(Cl)(Cl)C(Cl)Cl (stereo not given)
6.66

* * *

- System: SK-MEL-5 melanoma
- MEASUREMENT NOTES: NCI tumour cell line growth inhibition, 48 h
MEASURED METRIC: TGI

Recorded results for 5 compounds are shown here.
SUBSTANCE SMILES	ASSAY TARGET	TGI
CC[C@@H](CCCC[C@@H]1CC[C@H]2CC(=O)C[C@@H]12)OC	SK-MEL-5 melanoma	> 100 µM
O=C(O)CN(c1ccc(Cl)cc1)S(=O)(=O)c1ccccc1	SK-MEL-5 melanoma	> 100 µM
Cn1c(=O)n2n(c1=O)Cc1cccc3cccc(c13)C2	SK-MEL-5 melanoma	> 100 µM
COC(=O)[C@@H]1C=C[C@@H](C#N)n2c(=O)n(-c3ccccc3)c(=O)n21	SK-MEL-5 melanoma	> 100 µM
CCOC(=O)c1cccc(NC(=O)CBr)c1	SK-MEL-5 melanoma	2.76 µM

# lookup: TGI of Cc1ccc(-c2sc(-c3ccc(C)cc3)c3c2C2CCC3C2)cc1
> 50 µM

* * *

- System: SN12C renal
- MEASUREMENT NOTES: NCI tumour cell line growth inhibition, 48 h
MEASURED METRIC: TGI

Recorded results for 10 compounds are shown here.
COMPOUND	ASSAY TARGET	DATA VALUE
CC1=C2C(=O)O[C@@H](c3ccoc3)[C@]2(C)CCC1=O	SN12C renal	> 100 µM
FC(F)(F)P1C2C=CC(CC2)C1(F)F (configuration not stated)	SN12C renal	> 100 µM
Cn1ncc2cc3c(Nc4ccc(Cl)cc4)cccc3nc21	SN12C renal	70.8 µM
CCOc1cc(/C=N\N(C)C)cc(/C=N\N(C)C)c1O	SN12C renal	> 100 µM
COc1c(OC(C)=O)ccc(/C=C2\N=C(C)OC2=O)c1[N+](=O)[O-]	SN12C renal	> 100 µM
O=C(c1ccc(Cl)cc1Cl)N(Cc1cccnc1)C(=S)N(Cc1cccnc1)C(=O)c1ccc(Cl)cc1Cl	SN12C renal	18.3 µM
Cn1nc(-c2ccccc2NC(=O)C(F)(F)F)c(=O)n(C)c1=S	SN12C renal	> 100 µM
O=[N+]([O-])c1ccc(Sc2ncccn2)c([N+](=O)[O-])c1	SN12C renal	13.9 µM
NC(N)=NS(=O)(=O)c1ccc(NC(=O)c2cccc3c(Nc4ccc(S(=O)(=O)N=C(N)N)cc4)c4ccc(Cl)cc4nc23)cc1	SN12C renal	> 100 µM
COc1cccc(NC(=O)c2sc3nc4c(cc3c2N)CCCC4)c1	SN12C renal	> 100 µM

Consider the additional compound presented here.
# lookup: TGI of O=S(=O)(O)CS(=O)(=O)OCCCl
> 100 µM

* * *

- Test system: SF-268 CNS
- MEASUREMENT NOTES: NCI tumour cell line growth inhibition, 48 h; in the data active means GI50 below about 0.43 µM; inactive means the rest
Can you answer with just one of these options? 1 (yes) for active, 0 (no) for inactive

Please share the test call associated with O=C(Nc1ccncc1)C(=O)c1cn(S(=O)(=O)c2ccc(Br)cc2)c2ccccc12 .
0 (no)

* * *

Overview of reported TGI across a group of molecules:
- System: UACC-257 melanoma
- MEASUREMENT NOTES: NCI tumour cell line growth inhibition, 48 h
Quick reminder: number only, in µM, skip the unit.

SUBSTANCE SMILES	TGI, µM
Cc1ccc(S(=O)(=O)N/N=C/C(Br)=C(/Br)C(=O)O)cc1	26.8

Consider the additional molecule presented here.
# lookup: TGI of CC(C)Nc1[nH]c(C(=O)c2ccccc2)c(N)c1C(=S)Nc1ccccc1
46.7

* * *

- Tested on: SW-620 colon
- MEASUREMENT NOTES: NCI tumour cell line growth inhibition, 48 h
Overview of reported GI50 across a group of molecules:

Recorded results for 3 molecules are shown here.
MOLECULE	DATA VALUE
COc1cc(C2CC(c3cccc(Nc4ccncc4)c3)=NN2c2cc(Cl)cc(Cl)c2)cc(OC)c1OC (centres undefined)	1.67 µM
O=C(c1ccccc1)c1nn(-c2ccc(Cl)cc2)c2nc3nc(-c4ccccc4)cc(=O)n3nc12	49.5 µM
CCCCCCCCCCCCc1ccc(C(=O)/C=C/C(=O)O)cc1	1.43 µM

# lookup: GI50 of O=C(CCCc1c[nH]c2ccccc12)NC1CC(=O)c2c(Br)sc(Br)c21 (centres undefined)
18.8 µM

# lookup: GI50 of COc1cccc(NC(=O)c2sc3nc4c(cc3c2N)CCCC4)c1
0.45 µM

# lookup: GI50 of O=C(c1cccs1)c1c(C(F)(F)F)n([O-])c2ccc(C(F)(F)F)cc2[n+]1=O
0.162 µM

# lookup: GI50 of Cc1cc(NC(=O)C2c3ccccc3C(=O)N(CC(C)C)C2c2cccs2)no1 (centres undefined)
> 100 µM

# lookup: GI50 of Cn1cc(-c2ccc(=O)n(Cc3cccc(-c4ncc(OCCN5CCOCC5)cn4)c3)n2)cn1
> 100 µM

# lookup: GI50 of COc1cc(-c2cc(C(=O)N3CCN(C(=O)c4ccccc4NCc4ccco4)CC3)nc3cc(-c4ccccc4)nn23)cc(OC)c1OC
2.62 µM

Hey, just so you know, these numbers are from PubChem BioAssay (NCI).
